- Tested on: 817829-284-R-J1-PDC complex spheroids, viability
- Experiment description: Anticancer human tumor 817829-284-R-J1-PDC patient-derived colon adenocarcinoma cell line growth inhibition [GQUAD]
- Assay conditions: second compound 0.316 µM; first compound 0.00316 µM; hits give low values
Threshold check on viability, T/C: strictly below 40% is label 1; on or above 40% is label 0.

- Molecule: "Cn1ncnc1[C@H]1c2n[nH]c(=O)c3cc(F)cc(c23)N[C@@H]1c1ccc(F)cc1 + Cc1[nH]c2ccc(F)cc2c1-c1nc2c3cccnc3c3ncccc3c2[nH]1"
  Measurement target: "817829-284-R-J1-PDC complex spheroids, viability"
  Class name: "label 0"

Query: Hello, is viability, T/C of the following molecule strictly smaller than 40%? Cc1[nH]c2ccccc2c1CCNCc1ccc(/C=C/C(=O)NO)cc1 + Cc1cnc(CNC(=O)c2c(=O)c3ccc(N4CCCN(C)CC4)nc3n3c2sc2ccccc23)cn1
Response: label 1

Query: Input CC[C@@]1(O)C(=O)OCc2c1cc1n(c2=O)Cc2cc3c(CN(C)C)c(O)ccc3nc2-1 + Cc1[nH]c2ccc(F)cc2c1-c1nc2c3cccnc3c3ncccc3c2[nH]1 ; condition: viability, T/C strictly below 40%. Does it hold?
Response: label 0

Query: Does the reported viability, T/C of the following molecule sit strictly below 40%? Cc1[nH]c2ccccc2c1CCNCc1ccc(/C=C/C(=O)NO)cc1 + Cc1[nH]c2ccc(F)cc2c1-c1nc2c3cccnc3c3ncccc3c2[nH]1
Response: label 0

Query: # strict comparison: is reported viability, T/C < 40%? input = CCc1c2c(nc3ccc(O)cc13)-c1cc3c(c(=O)n1C2)COC(=O)[C@]3(O)CC + Cc1[nH]c2ccc(F)cc2c1-c1nc2c3cccnc3c3ncccc3c2[nH]1
Response: label 1

Query: Decide: viability, T/C of CCc1c2c(nc3ccc(O)cc13)-c1cc3c(c(=O)n1C2)COC(=O)[C@]3(O)CC + CN(C)c1ccc(Nc2c3ccc(NC(=O)CCN4CCCC4)cc3nc3cc(NC(=O)CCN4CCCC4)ccc23)cc1 strictly below 40%?
Response: label 0

Query: Dear colleague, could you confirm whether viability, T/C of CC[C@@]1(O)C(=O)OCc2c1cc1n(c2=O)Cc2cc3c(CN(C)C)c(O)ccc3nc2-1 + Cc1cnc(CNC(=O)c2c(=O)c3ccc(N4CCCN(C)CC4)nc3n3c2sc2ccccc23)cn1 falls below 40%? Thanks.
Response: label 1

###

- System: 817829-284-R-J1-PDC complex spheroids, viability
- Experiment description: Anticancer human tumor 817829-284-R-J1-PDC cell line growth inhibition [GQUAD];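 also: spheroids exposed to agents for 7 days before readout; percent viability relative to DMSO vehicle control taken as 100%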
- Assay conditions: second compound 1 µM; first compound 1 µM; hits give low values
Rule for this label: 1 means viability, T/C is less than 80%; 0 means viability, T/C is at least 80%.

- Molecule: "CC1COCCN1c1cc(C2(S(C)(=N)=O)CC2)nc(-c2ccnc3[nH]ccc23)n1 (stereo unspecified) + Cc1[nH]c2ccc(F)cc2c1-c1nc2c3cccnc3c3ncccc3c2[nH]1"
  Measurement target: "817829-284-R-J1-PDC complex spheroids, viability"
  Class name: 1
- Molecule: "O=c1[nH]cc(F)c(=O)[nH]1 + CN(C)c1ccc(Nc2c3ccc(NC(=O)CCN4CCCC4)cc3nc3cc(NC(=O)CCN4CCCC4)ccc23)cc1"
  Measurement target: "817829-284-R-J1-PDC complex spheroids, viability"
  Class name: 0
- Molecule: "O=C(c1cc(Cc2n[nH]c(=O)c3ccccc23)ccc1F)N1CCN(C(=O)C2CC2)CC1 + CN(C)c1ccc(Nc2c3ccc(NC(=O)CCN4CCCC4)cc3nc3cc(NC(=O)CCN4CCCC4)ccc23)cc1"
  Measurement target: "817829-284-R-J1-PDC complex spheroids, viability"
  Class name: 0

Query: Lab log: compare recorded viability, T/C with 80%; is it strictly lower for COc1cc(C2c3cc4c(cc3C(OC3OC5COC(C)OC5C(O)C3O)C3COC(=O)C23)OCO4)cc(OC)c1O (stereo unspecified) + Cc1[nH]c2ccc(F)cc2c1-c1nc2c3cccnc3c3ncccc3c2[nH]1 ?
Response: 1

Query: API: query returns whether the molecule falls strictly under 80% in viability, T/C. Query: CCCS(=O)(=O)Nc1ccc(F)c(C(=O)c2c[nH]c3ncc(-c4ccc(Cl)cc4)cc23)c1F + Cc1[nH]c2ccc(F)cc2c1-c1nc2c3cccnc3c3ncccc3c2[nH]1
Response: 0

Query: Threshold test, viability, T/C < 80%: Nc1ccn(C2OC(CO)C(O)C2(F)F)c(=O)n1 (stereo unspecified) + CN(C)c1ccc(Nc2c3ccc(NC(=O)CCN4CCCC4)cc3nc3cc(NC(=O)CCN4CCCC4)ccc23)cc1
Response: 1
